Consider the following compounds and their measured relative viability readings.
system: NCI-H2347; experiment: relative viability (nuclei count vs DMSO), 5 days (fraction); higher = more cells survive; details: first compound 0.005 µM
Just the number.

# compound, valueObserved
records = [
    ("Nc1ccn([C@@H]2O[C@H](CO)[C@@H](O)[C@@H]2O)c(=O)n1 [Cytarabine] + O=C(c1cc(Cc2n[nH]c(=O)c3ccccc23)ccc1F)N1CCN(C(=O)C2CC2)CC1 [Olaparib] (partner 8 µM)", 0.59),
    ("COc1cc2nccc(Oc3ccc(NC(=O)Nc4cc(C)on4)c(Cl)c3)c2cc1OC [Tivozanib] + Cc1nc(NC(=O)N2CCC[C@H]2C(N)=O)sc1-c1ccnc(C(C)(C)C(F)(F)F)c1 [Alpelisib] (partner 2 µM)", 1.01),
    ("COc1cc2nccc(Oc3ccc(NC(=O)Nc4cc(C)on4)c(Cl)c3)c2cc1OC [Tivozanib] + CC(=O)Nc1cccc(-n2c(=O)n(C3CC3)c(=O)c3c(Nc4ccc(I)cc4F)n(C)c(=O)c(C)c32)c1 [Trametinib] (partner 0.02 µM)", 0.311),
]

Q: # relative viability lookup, item Nc1ccn([C@@H]2O[C@H](CO)[C@@H](O)[C@@H]2O)c(=O)n1 [Cytarabine] + NC(=O)Nc1cc(-c2cccc(F)c2)sc1C(=O)N[C@H]1CCCNC1 [AZD7762] (partner 0.2 µM)
A: 0.721

Q: Which relative viability value belongs to Nc1ccn([C@@H]2O[C@H](CO)[C@@H](O)[C@@H]2O)c(=O)n1 [Cytarabine] + Nc1ncn([C@H]2C[C@H](O)[C@@H](CO)O2)c(=O)n1 [Decitabine] (partner 2 µM) ?
A: 0.61

---

system: NCI-H1993; experiment: relative viability (nuclei count vs DMSO), 5 days (fraction); higher = more cells survive; settings: first compound 0.000632 µM
molecules and their reported relative viability
Answer using only a numeral; do not append any unit.

Worked cases, answers included:
# molecule, metricName, valueObserved
rows = [
    ("CC(=O)O[C@@]12CO[C@@H]1C[C@H](O)[C@@]1(C)C(=O)[C@H](O)C3=C(C)[C@@H](OC(=O)[C@H](O)[C@@H](NC(=O)OC(C)(C)C)c4ccccc4)C[C@@](O)([C@@H](OC(=O)c4ccccc4)[C@H]21)C3(C)C [Docetaxel] + Cc1nc(Nc2ncc(C(=O)Nc3c(C)cccc3Cl)s2)cc(N2CCN(CCO)CC2)n1 [Dasatinib] (partner 0.075 µM)", "relative viability", 0.612),
    ("CC(=O)O[C@@]12CO[C@@H]1C[C@H](O)[C@@]1(C)C(=O)[C@H](O)C3=C(C)[C@@H](OC(=O)[C@H](O)[C@@H](NC(=O)OC(C)(C)C)c4ccccc4)C[C@@](O)([C@@H](OC(=O)c4ccccc4)[C@H]21)C3(C)C [Docetaxel] + CS(=O)(=O)CCNCc1ccc(-c2ccc3ncnc(Nc4ccc(OCc5cccc(F)c5)c(Cl)c4)c3c2)o1 [Lapatinib] (partner 2 µM)", "relative viability", 0.824),
]

Q: State the recorded relative viability for this entry: CC(=O)O[C@@]12CO[C@@H]1C[C@H](O)[C@@]1(C)C(=O)[C@H](O)C3=C(C)[C@@H](OC(=O)[C@H](O)[C@@H](NC(=O)OC(C)(C)C)c4ccccc4)C[C@@](O)([C@@H](OC(=O)c4ccccc4)[C@H]21)C3(C)C [Docetaxel] + NC(=O)Nc1cc(-c2cccc(F)c2)sc1C(=O)N[C@H]1CCCNC1 [AZD7762] (partner 0.2 µM)
A: 0.739
